B1: r16_88_TrROS_Hall (parent)
chain: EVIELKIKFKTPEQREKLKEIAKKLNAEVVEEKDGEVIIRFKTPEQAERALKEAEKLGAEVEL

# Variants of: B1
# methodNotes: folding stability dG (cDNA display proteolysis); higher = more stable
# experimentalSetup: PBS, room temperature
endpoint: folding stability dG (kcal/mol)

mutation	endpoint	valueObserved
E45R	folding stability dG	4.37
P44D	folding stability dG	4.15
N26I	folding stability dG	4.19
E32Y	folding stability dG	4.65
E16L	folding stability dG	4.6
L5K	folding stability dG	4.38
E1P	folding stability dG	4.22
K17W	folding stability dG	4.61
Q46S	folding stability dG	4.47
E53Y	folding stability dG	4.3
T43H	folding stability dG	4.57
V61A	folding stability dG	4.51
K56Q	folding stability dG	4.43
V30E	folding stability dG	4.59
V29E	folding stability dG	4.47
T43V	folding stability dG	4.27
L18K	folding stability dG	1.68
K6R	folding stability dG	4.73
K23L	folding stability dG	4.53
K24L	folding stability dG	4.5
I7M	folding stability dG	4.39
E53A	folding stability dG	4.13
E13R	folding stability dG	4.58
V37G	folding stability dG	3.63
D34T	folding stability dG	4.49
E32W	folding stability dG	4.34
I39L	folding stability dG	4.67
I7C	folding stability dG	4.31
E36W	folding stability dG	4.7
K6P	folding stability dG	3.96
V30F	folding stability dG	4.61
E20N	folding stability dG	4.25
